# target_desc: T1, 4H918-bA
# T1 chain: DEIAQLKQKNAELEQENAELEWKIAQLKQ
# test_method_notes: two-hybrid library CCNG1;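 also: natural log of median RNA to DNA barcode read ratio; higher means stronger binding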
endpoint: interaction score

Worked cases, answers included:
{"binder": "DKNAQLEQKIAELKQKIAELEWENAQLEQ [4H3427-bA]", "value_measured": -0.926}
{"binder": "DEIAQLKQEIAELKQENAELKWKNAQLEQ [4H607-bA]", "value_measured": -1.07}
{"binder": "DEIAQLKQENAELKQKNAELEWEIAQLKQ [4H754-bA]", "value_measured": -0.579}
{"binder": "DKNAQLKQKNAELKQKIAELKWEIAQLEQ [4H4073-bA]", "value_measured": -0.789}

[A] DKIAQLKQENAELEQKIAELKWEIAQLEQ [4H2729-bA]
[B] DEIAQLKQENAELKQEIAELKWKIAQLEQ [4H717-bA]
Ask | Endpoint returns the identifier whose interaction score is numerically larger, either A or B . To answer, give the label that identifies your chosen option.
Reply | A

[1] DKNAQLKQKNAELEQKIAELEWEIAQLEQ [4H4001-bA]
[2] DEIAQLKQKIAELEQEIAELKWENAQLKQ [4H780-bA]
Ask | Looking at recorded values for interaction score, does 1 or 2 come in lower? To answer, give the label that identifies your chosen option.
Reply | 1
(1: -1.15, 2: -0.303)

[a] DEIAQLEQKNAELKQEIAELKWKIAQLKQ [4H462-bA]
[b] DKIAQLKQENAELEQEIAELKWKIAQLKQ [4H2702-bA]
Ask | Looking at recorded values for interaction score, does a or b come in lower? To answer, give the label that identifies your chosen option.
Reply | a
(a: -1.06, b: -0.134)

[I] DENAQLKQKIAELEQKNAELEWKIAQLEQ [4H1845-bA]
[II] DEIAQLEQEIAELKQEIAELEWKNAQLKQ [4H72-bA]
Ask | Looking at recorded values for interaction score, does I or II come in lower? To answer, give the label that identifies your chosen option.
Reply | I

[a] DKNAQLEQKIAELEQENAELKWEIAQLKQ [4H3354-bA]
[b] DKNAQLEQEIAELEQKIAELEWKNAQLKQ [4H3112-bA]
Ask | Endpoint returns the identifier whose interaction score is numerically larger, either a or b . To answer, give the label that identifies your chosen option.
Reply | a

meta.source: paper PMC10397247
